- System: NOMO1
- methodNotes: cell viability relative to DMSO control; higher = less cytotoxic
- assaySetup: RPMI 5 mM glucose + 10% FBS; 48 h; 0.00234 µM

compound: NC1(Cc2ccc(Cl)cc2)CCN(c2ncnc3[nH]ccc23)CC1
subjectOfTest: NOMO1
unitLabel: %
cell viability: 102
--
compound: CCC[C@H](NC(=O)/C(C#N)=C/c1cccc(Br)n1)c1ccccc1
subjectOfTest: NOMO1
unitLabel: %
cell viability: 123
--
compound: OC1=CC=C(C=C1)\C2=C\OC3=C(C=CC(=C3)O)C2=O
subjectOfTest: NOMO1
unitLabel: %
cell viability: 91.6
--
compound: COc1c(C)cnc(Cn2cnc3c(Cl)nc(N)nc32)c1C
subjectOfTest: NOMO1
unitLabel: %
cell viability: 112
--
compound: CN(c1ncccc1CNc1nc(Nc2ccc3c(c2)CC(=O)N3)ncc1C(F)(F)F)[S+](C)(=O)[O-]
subjectOfTest: NOMO1
unitLabel: %
cell viability: 113
--
compound: CC(=O)O.Cc1c(-c2ccc(O)cc2)n(Cc2ccc(OCCN3CCCCCC3)cc2)c2ccc(O)cc12
subjectOfTest: NOMO1
unitLabel: %
cell viability: 103
--
compound: CC\1=C(C(\N=C(/N1)C2=CC(=NC=C2)Cl)C3=C(F)C=C(Cl)C=C3)/C(=O)NC4=C(F)C=C5[NH]N=CC5=C4 (stereo not drawn)
subjectOfTest: NOMO1
unitLabel: %
cell viability: 100
--
compound: CNC1CCC(N(Cc2cccc(-c3ccncc3)c2)C(=O)c2sc3ccccc3c2Cl)CC1 (stereo not drawn)
subjectOfTest: NOMO1
unitLabel: %
cell viability: 85.3
--
compound: O=C(NOCC(O)CO)c1cc(Br)c(F)c(F)c1Nc1ccc(I)cc1F (stereo not drawn)
subjectOfTest: NOMO1
unitLabel: %
cell viability: 90.6
--
compound: C\C1=C\C(=O)OC2=C1C=CC(=C2)O
subjectOfTest: NOMO1
unitLabel: %
cell viability: 122
--
compound: Cc1ccccc1C(C(=O)NC1CCCCC1)N(C(=O)Cn1ccnc1C)c1cccc(F)c1 (stereo not drawn)
subjectOfTest: NOMO1
unitLabel: %
cell viability: 93.9
--
compound: CCCCn1c(=O)n(Cc2ccccc2F)c(=O)c2nc(Cc3ccc(NC(C)=O)cc3)[nH]c21
subjectOfTest: NOMO1
unitLabel: %
cell viability: 82.9
--
compound: OC(=O)C1=CC=C(NC2=NC3=C(C\N=C(/C4=CC(=CC=C34)Cl)C5=C(F)C=CC=C5F)C=N2)C=C1
subjectOfTest: NOMO1
unitLabel: %
cell viability: 96.8
--
compound: CN1[C@@H]2CC[C@H]1CC(OC(=O)c1c[nH]c3ccccc13)C2 (stereo partly drawn)
subjectOfTest: NOMO1
unitLabel: %
cell viability: 125
--
compound: Cc1ccc(NC(=O)c2ccc(CN3CCN(C)CC3)cc2)cc1Nc1nc(-c2cccnc2)cs1
subjectOfTest: NOMO1
unitLabel: %
cell viability: 104
--
compound: C[C@H](NC(=O)/C(C#N)=C/c1cccc(Br)n1)c1ccccc1
subjectOfTest: NOMO1
unitLabel: %
cell viability: 104
--
compound: CN(C)c1ccc(O)c2c1C[C@H]1C[C@H]3[C@H](N(C)C)C(O)=C(C(N)=O)C(=O)[C@@]3(O)C(O)=C1C2=O
subjectOfTest: NOMO1
unitLabel: %
cell viability: 98
--
compound: COc1cnc(N[S+](=O)([O-])c2ccc(N)cc2)nc1
subjectOfTest: NOMO1
unitLabel: %
cell viability: 118
